Target: T1, KV (N-terminal acetylation)
T1 construct: de novo designed 28-residue coiled coil peptide, four heptads (gabcdef); also called KV peptide; source: synthetic peptide (solid phase, Fmoc), purified by reverse phase HPLC
T1 peptide: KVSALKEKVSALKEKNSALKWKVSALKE
Experiment: circular dichroism, thermal denaturation; Kd at 75 °C, as used for the self-sorting simulations
Details: both partners purified
QUANTITY KIND: Kd

Provide measured Kd value, entry: Ac-EIAALEKEIAALEKENAALEWEIAALEK-NH2 (de novo designed 28-residue coiled coil peptide, four heptads (gabcdef); also called EI peptide; source: synthetic peptide (solid phase, Fmoc), purified by reverse phase HPLC) [EI] > 200 nM
